- Tested on: HCT-15 colon
- assay explanation: NCI tumour cell line growth inhibition, 48 h
# GI50 per record follows

COc1ccc(/C=C/C(=O)c2cc3c(N)c(C(=O)Nc4cccc(Cl)c4C)sc3nc2C)cc1	185 nM

*Q* Identify the reported GI50 for the following entry. "COc1cc2c(cc1OCCCCCn1c(-c3ccc(OCc4ccccc4)cc3)nc3cc(N4CCOCC4)ccc31)N=C[C@@H]1CCCN1C2=O"
*A* 2810 nM

*Q* Identify the reported GI50 for the following entry. "Clc1ccc(OCc2nn3c(CCCCc4nnc5sc(COc6ccc(Cl)cc6Cl)nn45)nnc3s2)c(Cl)c1"
*A* > 100000 nM

*Q* Identify the reported GI50 for the following entry. "N#Cc1c(-c2ccccc2)cc(-c2ccccc2)n(CCCC(=O)NO)c1=O"
*A* 434 nM

*Q* Identify the reported GI50 for the following entry. "CC(C)=CCC/C(C)=C/CC/C(C)=C/CC/C(C)=C/CSC[C@H](NC(=O)CCCCCN1CCN(C)CC1)C(=O)NC1CCCCC1"
*A* 1780 nM

*Q* Identify the reported GI50 for the following entry. "COc1cc2c(cc1I)-c1c(cc(OC)c(OC)c1OC)CC[C@@H]2NC(C)=O"
*A* 419 nM

----------
- Test system: IGROV1 ovarian
- assay explanation: NCI tumour cell line growth inhibition, 48 h
# TGI per record follows

Worked examples, 5 molecules total:
O=c1c2cc(F)ccc2sc2c(Nc3ccncc3)nc3ccccc3c12	5.55 µM
O=C1C(c2c(O)[nH]c3ccc([N+](=O)[O-])cc23)=Nc2ccccc21	> 100 µM
CN(C)C1C(=O)C(C(=O)NCN2CCCC2)=C(O)C2(O)C(=O)C3=C(O)c4c(O)cccc4C(C)(O)C3CC12 (centres undefined)	> 100 µM
COc1ccc(O)c(/C=N/NC(=S)N2CCCCC2)c1	> 67.4 µM
C=CCN1CCN([C@H](c2ccc(C(=O)N(CC)CC)cc2)c2cccc(OC)c2)CC1	> 25 µM

*Q* Identify the reported TGI for the following entry. O=C(c1nc2ccc(Cl)cc2[nH]c1=O)C(O)c1ccccc1 (centres undefined)
*A* > 100 µM

*Q* Identify the reported TGI for the following entry. CCOC(=O)C12CCCC1(O)N(NC(N)=O)C(C)=C2C(=O)OC (centres undefined)
*A* > 100 µM

*Q* Identify the reported TGI for the following entry. CCCCCCCCCCCCCC(=O)OC1C(O)C(CO)OC(OC)C1NC(=O)N(CCCl)N=O (centres undefined)
*A* > 100 µM

*Q* Identify the reported TGI for the following entry. "CO[C@@H]1C[C@H](OC(N)=O)[C@@H]2C=C[C@@H]3/C=C(C)/C=C/[C@@H](C)[C@H]([C@H](C)[C@H](O)[C@@H](C)NC(C)=O)OC(=O)/C=C/C=C(C)\C=C\[C@]3(C)[C@@H]2C1"
*A* 3.28 µM

----------
- System: SN12C renal
- assay explanation: NCI tumour cell line growth inhibition, 48 h
assay metric: GI50

Worked examples, 5 compounds total:
CC(C)=[CH][Sb]([Br])([CH]=C(C)C)([CH]=C(C)C)[c]1ccccc1	25.4 µM
CC(C)=CCC/C(C)=C/CC/C(C)=C/CC/C(C)=C/CSC[C@H](NC(=O)CCCCCN1CCN(C)CC1)C(=O)NC1CCCCC1	2.36 µM
O=c1c2cc(F)ccc2sc2c(Nc3ccncc3)nc3ccccc3c12	2.16 µM
[N-]=[N+]=NCCCn1c2c(c3cc4c(cc3c1=O)OCO4)C(=O)c1ccccc1-2	> 100 µM
COc1cc(-c2ccc(-c3ccc(C(=N)N)cc3)s2)cc(OC)c1OC	4.5 µM

*Q* Identify the reported GI50 for the following entry. "O=C(COc1nc2ccccc2nc1-c1ccccc1)Nc1ccc(Cl)cc1"
*A* 27.4 µM

*Q* Identify the reported GI50 for the following entry. "O=C([O-])c1cc(I)cc(I)c1[OH2+].O=C([O-])c1cc(I)cc(I)c1[OH2+].[Mn+2]"
*A* 18.9 µM

*Q* Identify the reported GI50 for the following entry. "O=C(Nc1nc(-c2ccc(Cl)cc2)cs1)c1cc(-c2ccc(Br)cc2)nc2ccc(Cl)cc12"
*A* 4.78 µM

*Q* Identify the reported GI50 for the following entry. "CN(C)c1cc[n+](/C(NS(=O)(=O)c2cc(C(=O)Nc3ccc(Cl)cc3)c(Cl)cc2[S-])=C(\C#N)C(=O)c2ccccc2)cc1"
*A* 79.8 µM

----------
- Tested on: K-562 leukemia
- assay explanation: NCI tumour cell line growth inhibition, 48 h
# TGI per record follows

Worked examples, 5 molecules total:
CN(C)CCCNC(=O)c1cc2/c(=C\c3ccc(N(C)C)cc3)c3ccccc3n2[n+]1C	35.4 µM
O=C1Nc2ccccc2/C1=C\c1c(Cl)nc2sccn12	> 100 µM
CCC(=O)/C=C/c1ccccc1	> 100 µM
CC1=C(O)C(=O)C(C2=C(O)C(=O)C(C)=C(O)C2=O)=C(O)C1=O	> 100 µM
CCOC(=O)C(=O)/C(=C/n1c(=S)[nH]c2ccc([N+](=O)[O-])cc21)C(=O)OCC	> 100 µM

*Q* Please report the measured TGI for CCOC(=O)C1CCCCN1C(=O)OCc1ccccc1 (stereo unspecified) tested on K-562 leukemia.
*A* > 100 µM

----------
- System: PC-3 prostate
- assay explanation: NCI tumour cell line growth inhibition, 48 h
assay metric: TGI

Cn1ccc(=O)c2c(O)c3ccccc3c(O)c21	> 100 µM
CCOC(=O)N1C/C(=C/c2ccc(Cl)cc2)C(=O)/C(=C/c2ccc(Cl)cc2)C1	15 µM
Cc1ccc(-n2c(=O)c3nn4c(=O)n(-c5ccc(C)cc5)c(=O)c4nn3c2=O)cc1	> 100 µM
CCOCCOC(=O)C1CCC(=O)N1CN(C(C)=O)c1cc(OC)ccc1OC (centres undefined)	> 100 µM
COc1ccc(NC2=NCCO2)c2c1CCCC2	> 100 µM
COc1cc(/C=C/c2cc(/C=C/c3ccc(O)c(OC)c3)n(-c3c(Cl)cccc3Cl)c(=O)n2)ccc1O	25.3 µM
O=C(CSc1nc2ccccc2c2ccccc12)c1ccccc1	> 100 µM
CO[C@@H]1C[C@H](OC(N)=O)[C@@H]2C=C[C@@H]3/C=C(C)/C=C/[C@@H](C)[C@H]([C@H](C)[C@H](O)[C@@H](C)NC(C)=O)OC(=O)/C=C/C=C(C)\C=C\[C@]3(C)[C@@H]2C1	10.8 µM
O=CN(CCN1CCCC1)C1CCc2cc(Cl)c(Cl)cc2C1 (centres undefined)	28.9 µM
C#CCn1cnc2cnc(Nc3cccc(NC(=O)CCl)c3)nc21	> 62.5 µM

*Q* Identify the reported TGI for the following entry. "CC(C)OC(=O)C1=C2c3ncccc3C(=O)N2[C@@H](Cl)[C@H](Cl)[C@H]1Cl"
*A* > 100 µM

*Q* Identify the reported TGI for the following entry. CCO/C=N/C1=C(C#N)C(c2ccc(OC)cc2)c2sc3c(F)cccc3c2O1 (centres undefined)
*A* > 100 µM

*Q* Identify the reported TGI for the following entry. "CC(=O)O[C@H]1C(=O)[C@@]2(C)[C@H]([C@H](OC(=O)c3ccccc3)[C@]3(O)C[C@H](OC(=O)[C@H](O)[C@@H](NC(=O)c4ccccc4)c4ccccc4C)C(C)=C1C3(C)C)[C@]1(OC(C)=O)CO[C@@H]1C[C@@H]2O"
*A* > 9.4 µM

----------
- Test system: NCI-H23 lung
- assay explanation: NCI tumour cell line growth inhibition, 48 h
assay metric: GI50

*Q* Identify the reported GI50 for the following entry. "NCCCCCCCCCCn1c2c(c3ccccc3c1=O)C(=O)c1ccccc1-2"
*A* 14.9 µM

*Q* Identify the reported GI50 for the following entry. "COc1cc(/C=C/c2cc(/C=C/c3ccc(O)c(OC)c3)n(-c3c(Cl)cccc3Cl)c(=O)n2)ccc1O"
*A* 2.38 µM

*Q* Identify the reported GI50 for the following entry. CCO/C=N/C1=C(C#N)C(c2ccc(OC)cc2)c2sc3c(F)cccc3c2O1 (stereo not given)
*A* 3.29 µM

*Q* Identify the reported GI50 for the following entry. "CC(C)=CCC/C(C)=C/CC/C(C)=C/CC/C(C)=C/CSC[C@H](NC(=O)CCCCCN1CCN(C)CC1)C(=O)NC1CCCCC1"
*A* 4.73 µM

*Q* Identify the reported GI50 for the following entry. "CC1=C2O[C@]3(O)C=C2C(=C(O)C1=O)[C@@H]1O[C@H](CC[C@H](C)/C=C(\C)C[C@@H](C)C[C@@H]3C)[C@H](C)[C@H](O)[C@H]1C"
*A* 0.563 µM

----------
- Tested on: SN12C renal
- assay explanation: NCI tumour cell line growth inhibition, 48 h
# TGI per record follows

COc1ccc(CC(C)=C(c2ccc(OCCN3CCCCCC3)cc2)c2ccc(OCCN3CCCCCC3)cc2)cc1	1.35 µM
Cc1nn(C(=O)c2ccccc2O)c2c1C(c1ccc3ccccc3c1O)SC(N)=N2 (stereo not given)	> 10 µM
C=CCN1CCN([C@H](c2ccc(C(=O)N(CC)CC)cc2)c2cccc(OC)c2)CC1	> 25 µM
Cn1c(-c2ccccc2)cc(-c2ccsc2)c1-c1ccsc1	> 100 µM

Okay, now this molecule:
*Q* Identify the reported TGI for the following entry. COc1cc(OC)c2c(c1-c1ccc(C)cc1)CC(C)N(Cc1ccccc1)[C@H]2C (stereo not given in full)
*A* > 100 µM
